Tested on: A549
PROTOCOL TEXT: Cytotoxicity against human A549 cells after 72 hrs by MTT assay
Assay type: functional, cell-based
CONDITION DESCRIPTION: A549, 72 h
Counter-ions that a name gives are not always drawn.
Reported pIC50 by item:
Please keep in mind that pIC50 is minus log10 of the molar concentration; only the number is needed.

Reference set, count: 8
- COMPOUND: "C[C@@H]1C/C=C/CC/C=C\\C(=O)Cc2cc(O)cc(O)c2C(=O)O1"
  pIC50: 5.39
- COMPOUND: "C[C@@H]1C[C@H]2O[C@@H]2/C=C\\C=C\\C(=O)Cc2cc(O)cc(O)c2C(=O)O1"
  pIC50: 5.59
- COMPOUND: "C[C@@H]1C[C@H]2O[C@@H]2/C=C\\C=C\\C(=O)Cc2c(Cl)c(O)cc(O)c2C(=O)O1"
  pIC50: 7.00
- COMPOUND: "COc1cccc2c1C(=O)c1c(O)c3c(c(O)c1C2=O)C[C@@](O)(C(=O)CO)C[C@@H]3O[C@H]1C[C@H](N)[C@H](O)[C@H](C)O1 [DOXORUBICIN HYDROCHLORIDE]"
  pIC50: 7.00
- COMPOUND: "C[C@@H]1C[C@H]2O[C@@H]2CC/C=C/C(=O)Cc2cc(O)cc(O)c2C(=O)O1"
  pIC50: 5.68
- COMPOUND: "COc1cc(O)c2c(c1)[C@H]1O[C@@H]1C[C@H](O)[C@H](O)C(=O)/C=C\\C[C@H](C)OC2=O"
  pIC50: 6.00
- COMPOUND: "C[C@H]1C/C=C/CC(=O)CC/C=C/c2cc(O)cc(O)c2C(=O)O1"
  pIC50: 5.41
- COMPOUND: "C[C@@H]1C/C=C/CC/C=C/C(=O)Cc2cc(O)cc(O)c2C(=O)O1"
  pIC50: 5.77

Please fill in: pIC50 reported for C[C@@H]1C[C@H]2C=CC[C@H](CC(=O)Cc3cc(O)cc(O)c3C(=O)O1)O2 = 5.39
